Experimental system: GST-fusion FXR-LBD (Homo sapiens, UniProt Q96RI1)
Construct: 10 nM of purified GST-tagged FXR-LBD protein
Sequence (Q96RI1 262-486 limits assumed): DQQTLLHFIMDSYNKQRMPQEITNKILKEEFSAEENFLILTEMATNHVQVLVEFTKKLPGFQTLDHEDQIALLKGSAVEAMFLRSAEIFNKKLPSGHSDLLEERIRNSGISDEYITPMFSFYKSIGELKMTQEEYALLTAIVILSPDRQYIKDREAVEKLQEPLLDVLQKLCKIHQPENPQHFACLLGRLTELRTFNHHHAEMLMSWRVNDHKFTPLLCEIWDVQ
Assay: Alpha Screen coactivator (SRC-1 peptide) recruitment assay
Assay type: biochemical
Condition summary: recruitment of SRC-1 co-activator peptide, Alfa Screen, Table 1; 6-ECDCA = 100
Reported Efficacy is given for each of the following molecules.
Lab note: record the figure alone, no unit after it.

[[record]]
molecule = "CCC1C(=O)C2C3CCC(C(C)CCC(=O)O)C3(C)CCC2C2(C)CCC(N=[N+]=[N-])CC12 (centres unmarked) [compound 5]"
measurement = 24

[[record]]
molecule = "CC[C@H]1[C@@H](O)[C@@H]2[C@H](CC[C@]3(C)[C@@H]([C@H](C)CCC(=O)O)CC[C@@H]23)[C@@]2(C)CC[C@H](N=[N+]=[N-])C[C@@H]12 [compound 2]"
measurement = 90

[[record]]
molecule = "CCC1C(=O)C2C3CCC(C(C)CCC(=O)O)C3(C)CCC2C2(C)CCC(N=[N+]=[N-])CC12 (centres unmarked) [compound 1]"
measurement = 32


According to the records, this molecule CCC1C(O)C2C3CCC(C(C)CCCO)C3(C)CCC2C2(C)CCC(N=[N+]=[N-])CC12 (centres unmarked) [compound 8] displays Efficacy of 49

According to the records, this molecule CCC1C(O)C2C3CCC(C(C)CCCO)C3(C)CCC2C2(C)CCC(N=[N+]=[N-])CC12 (centres unmarked) [compound 4] displays Efficacy of 39

According to the records, this molecule CCC1C(O)C2C3CCC(C(C)CCC(=O)O)C3(C)CCC2C2(C)CCC(N=[N+]=[N-])CC12 (centres unmarked) [compound 6] displays Efficacy of 61

According to the records, this molecule CCC1C(O)C2C3CCC(C(C)CCCO)C3(C)CCC2C2(C)CCC(N=[N+]=[N-])CC12 (centres unmarked) [compound 7] displays Efficacy of 57

According to the records, this molecule CCC1C(O)C2C3CCC(C(C)CCCO)C3(C)CCC2C2(C)CCC(N=[N+]=[N-])CC12 (centres unmarked) [compound 3] displays Efficacy of 55

* * *

Experimental system: GST-fusion FXR-LBD (Homo sapiens)
Construct: 10 nM of purified GST-tagged FXR-LBD protein
Assay: Alpha Screen coactivator (SRC-1 peptide) recruitment assay
Condition summary: recruitment of SRC-1 co-activator peptide, Alfa Screen, Table 1
Reported pEC50 is given for each of the following compounds.
Please report pEC50 as the negative decimal logarithm of the molar concentration, giving only the number.

Example results:
[[record]]
compound = "CCC1C(O)C2C3CCC(C(C)CCC(=O)O)C3(C)CCC2C2(C)CCC(N=[N+]=[N-])CC12 (stereo not shown)"
experimental_system = "GST-fusion FXR-LBD (Homo sapiens)"
measurement = 5.86

[[record]]
compound = "CCC1C(O)C2C3CCC(C(C)CCCO)C3(C)CCC2C2(C)CCC(N=[N+]=[N-])CC12 (stereo not shown) [compound 7]"
experimental_system = "GST-fusion FXR-LBD (Homo sapiens)"
measurement = 5.74

[[record]]
compound = "CCC1C(O)C2C3CCC(C(C)CCCO)C3(C)CCC2C2(C)CCC(N=[N+]=[N-])CC12 (stereo not shown) [compound 3]"
experimental_system = "GST-fusion FXR-LBD (Homo sapiens)"
measurement = 6.26


According to the records, this compound `CC[C@H]1[C@@H](O)[C@@H]2[C@H](CC[C@]3(C)[C@@H]([C@H](C)CCC(=O)O)CC[C@@H]23)[C@@]2(C)CC[C@H](N=[N+]=[N-])C[C@@H]12` displays pEC50 of 6.21

Hey, just so you know, these numbers are from paper PMC5371667.
